Where do these numbers come from? They come from paper PMC9184248.

molecular target: LsRDLR (Laodelphax striatellus RDL GABA receptor) (Laodelphax striatellus, UniProt Q0ECT5, F128Y/F95S/Y91F); assay: two-electrode voltage clamp, Xenopus oocytes
outcome.measure: pEC50
Hey, just a heads up that pEC50 is the negative log base 10 of the concentration in molar.

Prompt: Param item = NCCCC(=O)O ; retrieve measured pEC50.
Response: 4.81

---

Biological target: LsRDLR (Laodelphax striatellus RDL GABA receptor) (Laodelphax striatellus, UniProt Q0ECT5, F95S)
Sequence (Q0ECT5 23-487 F95S): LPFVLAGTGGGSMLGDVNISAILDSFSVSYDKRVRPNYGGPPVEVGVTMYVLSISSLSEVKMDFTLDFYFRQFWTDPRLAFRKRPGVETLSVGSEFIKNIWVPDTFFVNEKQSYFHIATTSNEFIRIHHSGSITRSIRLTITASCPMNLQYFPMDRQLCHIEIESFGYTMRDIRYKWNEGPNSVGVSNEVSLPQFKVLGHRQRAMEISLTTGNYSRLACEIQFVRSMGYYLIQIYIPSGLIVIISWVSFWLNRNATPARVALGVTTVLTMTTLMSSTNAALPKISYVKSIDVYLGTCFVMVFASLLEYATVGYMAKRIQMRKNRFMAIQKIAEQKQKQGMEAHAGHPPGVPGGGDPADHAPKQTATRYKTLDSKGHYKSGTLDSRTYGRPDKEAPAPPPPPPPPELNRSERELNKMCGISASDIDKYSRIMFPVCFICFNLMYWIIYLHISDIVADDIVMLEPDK
Assay: two-electrode voltage clamp, Xenopus oocytes
outcome.measure: pEC50
Would you please state pEC50, meaning minus log10 of the concentration in mol/L, as a bare number?

Prompt: Could you share which pEC50 value was measured for NCCCC(=O)O [GABA] ?
Response: 5.39
